Molecular target: PARP1 L713F-nLuc biosensor (HCT116)
Test: PARP1 L713F-nLuc/akaLuc ratio relative to DMSO control (biosensor stabilization) (fold change); higher = more PARP1 biosensor stabilization (target engagement / stabilizer), active = hit call of the paper;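 active = log2 fold change beyond 2 SD from the library mean after excluding viability outliers; inactive = within 2 SD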
Conditions: stock concentration (mM; final µM = stock mM x 1): 10; 24 h
Would you mind answering with one of these outcomes? active, inactive

| COMPOUND | LABEL |
| --- | --- |
| COc1cc(C(=O)Nc2ccccc2-c2cn3c(CN4CCNCC4)csc3n2)cc(OC)c1OC | inactive |
| Cc1cn(-c2cc(NC(=O)c3ccc(C)c(Nc4nccc(-c5cnccn5)n4)c3)cc(C(F)(F)F)c2)cn1 | inactive |
| CS(=O)(=O)c1ccc(-c2cnc(NCc3ccco3)n3cnnc23)cc1 | inactive |

In: In this assay, the call recorded for CNC(=O)N1N=C(c2ccc(N3CCN(C)CC3)cc2)c2cc(OC)c(OC)cc2C[C@H]1C was what?
Out: inactive

In: Query CCN(C(=O)c1ccccc1OC)c1cc2c(cc1N1CCNC[C@H]1C)n(C)c(=O)n2C next
Out: inactive

In: COc1cc(N2CCN(C)CC2)ccc1Nc1nccc(-c2cn(C)c3cnccc23)n1 , same question.
Out: inactive

In: Likewise for CC(C)N(C[C@H]1O[C@@H](n2cnc3c(N)ncnc32)[C@H](O)[C@@H]1O)[C@H]1C[C@@H](CCc2nc3cc(C(C)(C)C)ccc3[nH]2)C1 ?
Out: inactive

Numbers sourced from the supplement of paper PMC11624193.
